- Test system: benzodiazepine receptor of rat brains
- assay_text: Radioligand receptor binding assay ([3H]-flumazenil competitive binding)
- condition_info: log[L] -8.5; mean ± SEM, n=3
- Method: All of the binding assays were performed in triplicates in a total volume of 500 µL at 30 °C for 35 min (Ahmadi et al., 2013[1]). Kd and Bmax in radioligand binding assay were calculated by non-linear regression analysis of the saturation and competitive curve data (Program Prism, Graph Pad, San Diego, CA). The IC50s of the novel compounds in binding studies were determined using one-way ANOVA with Tukey's HSD post-hoc test. […]
For each record, check the reported Specific binding of [3H]flumazenil: if it is below 0.4 cpm write Met, else write Not met.

Study these solved cases before continuing.
1. O=C(Nc1ccccc1)c1nnc(-c2ccc(Cl)cc2Oc2ccccc2)o1	Not met
2. O=C(Nc1ccccn1)c1nnc(-c2ccc(Cl)cc2Oc2ccccc2)o1	Not met
3. Cc1cccc(NC(=O)c2nnc(-c3ccc(Cl)cc3Oc3ccccc3)o2)n1	Met

Is Specific binding of [3H]flumazenil strictly under 0.4 cpm for the entry Cc1ccnc(NC(=O)c2nnc(-c3ccc(Cl)cc3Oc3ccccc3)o2)c1 ? Met

Specific binding of [3H]flumazenil strictly < 0.4 cpm for this compound? O=C(NN1CCOCC1)c1nnc(-c2ccc(Cl)cc2Oc2ccccc2)o1 Met

====

- System: benzodiazepine receptor of rat brains
- assay_text: Radioligand receptor binding assay ([3H]-flumazenil competitive binding)
- condition_info: log[L] -9.0; mean ± SEM, n=3
- Method: All of the binding assays were performed in triplicates in a total volume of 500 µL at 30 °C for 35 min (Ahmadi et al., 2013[1]). Kd and Bmax in radioligand binding assay were calculated by non-linear regression analysis of the saturation and competitive curve data (Program Prism, Graph Pad, San Diego, CA). The IC50s of the novel compounds in binding studies were determined using one-way ANOVA with Tukey's HSD post-hoc test. […]
Friendly reminder: Specific binding of [3H]flumazenil below 0.5 cpm is yes, at or above is no.

See these solved cases before continuing.
1. O=C(Nc1ccccc1)c1nnc(-c2ccc(Cl)cc2Oc2ccccc2)o1	yes
2. O=C(Nc1ccccn1)c1nnc(-c2ccc(Cl)cc2Oc2ccccc2)o1	no
3. Cc1ccnc(NC(=O)c2nnc(-c3ccc(Cl)cc3Oc3ccccc3)o2)c1	yes
4. Cc1cccc(NC(=O)c2nnc(-c3ccc(Cl)cc3Oc3ccccc3)o2)n1	yes

Consider O=C(NC1CCCCC1)c1nnc(-c2ccc(Cl)cc2Oc2ccccc2)o1 . Does its Specific binding of [3H]flumazenil lie strictly below 0.5 cpm? yes

is_below(Specific binding of [3H]flumazenil, 0.5 cpm) for O=C(NN1CCOCC1)c1nnc(-c2ccc(Cl)cc2Oc2ccccc2)o1 ? no

====

- measured_target: benzodiazepine receptor of rat brains
- assay_text: Radioligand receptor binding assay ([3H]-flumazenil competitive binding)
- condition_info: [3H]-flumazenil competitive binding
pKi: −log10 of the molar value.
Returns one of Yes or No; Yes when pKi is >= 9.

1. O=C(Nc1ccccn1)c1nnc(-c2ccc(Cl)cc2Oc2ccccc2)o1	No

# input for lookup
Could you tell me if the measured pKi of O=C(Nc1ccccc1)c1nnc(-c2ccc(Cl)cc2Oc2ccccc2)o1 reaches 9 or more? Yes

====

- measured_target: benzodiazepine receptor of rat brains
- assay_text: Radioligand receptor binding assay ([3H]-flumazenil competitive binding)
- condition_info: reduction of specific binding of [3H]-flumazenil by 50 %; triplicates, 30 °C, 35 min
measured_attribute: pIC50
Numbers only, as −log10 of the molar value.

Some solved entries appear below for comparison.
1) Cc1cccc(NC(=O)c2nnc(-c3ccc(Cl)cc3Oc3ccccc3)o2)n1	8.90
2) O=C(Nc1ccccc1)c1nnc(-c2ccc(Cl)cc2Oc2ccccc2)o1	9.14

Hi! Can you tell me pIC50 for each of these compounds?
1. O=C(NN1CCOCC1)c1nnc(-c2ccc(Cl)cc2Oc2ccccc2)o1
2. O=C(NC1CCCCC1)c1nnc(-c2ccc(Cl)cc2Oc2ccccc2)o1

[8.81, 8.60]

Look up pIC50 for the entries below, preserving their order.
1. Cc1ccnc(NC(=O)c2nnc(-c3ccc(Cl)cc3Oc3ccccc3)o2)c1
2. O=C(Nc1ccccn1)c1nnc(-c2ccc(Cl)cc2Oc2ccccc2)o1

1: 8.84; 2: 8.42
